target: PLK1 (Homo sapiens, UniProt P53350); construct: GST (N); experiment: PLK TR-FRET peptide assay (PLK1); format: biochemical; conditions: comparison with analogous compounds of WO 2011/079118
Sequence (P53350 whole entry): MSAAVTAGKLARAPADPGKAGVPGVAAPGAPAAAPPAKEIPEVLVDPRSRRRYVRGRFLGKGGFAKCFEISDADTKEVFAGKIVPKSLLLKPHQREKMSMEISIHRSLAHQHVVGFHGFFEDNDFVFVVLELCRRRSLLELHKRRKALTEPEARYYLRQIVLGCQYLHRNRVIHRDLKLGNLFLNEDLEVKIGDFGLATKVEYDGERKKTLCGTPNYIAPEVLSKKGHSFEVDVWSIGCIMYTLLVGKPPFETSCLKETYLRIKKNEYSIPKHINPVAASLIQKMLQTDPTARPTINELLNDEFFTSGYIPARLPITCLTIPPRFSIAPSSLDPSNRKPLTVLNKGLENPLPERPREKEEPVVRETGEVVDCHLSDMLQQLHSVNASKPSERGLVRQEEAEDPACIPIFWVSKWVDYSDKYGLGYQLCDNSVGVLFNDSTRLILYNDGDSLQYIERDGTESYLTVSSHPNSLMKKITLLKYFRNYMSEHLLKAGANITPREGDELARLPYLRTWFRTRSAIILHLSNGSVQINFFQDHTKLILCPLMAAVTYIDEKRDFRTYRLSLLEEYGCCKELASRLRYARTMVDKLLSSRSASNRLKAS
propertyMeasured: IC50 (nM)

compound	measurementUnit	IC50
CC[C@@H]1c2nncn2-c2cnc(-n3ccnc3-c3ccccc3)nc2N1C1CCC1	nM	441

a: CC[C@@H]1c2nncn2-c2cnc(-n3ccnc3-c3ccccc3F)nc2N1C1CCC1
b: CC[C@@H]1C(=O)N(C)c2cnc(-n3ccnc3-c3ccc(F)c(F)c3)nc2N1C1CCC1 [PCT Example 48, reference compound]
c: CC[C@@H]1c2nncn2-c2cnc(-n3ccnc3-c3ccc(F)cc3)nc2N1C1CCC1 [PCT Example 50, reference compound]
In: Please give the order of these compounds when sorted by IC50, largest value leading. Response format: the labels, sorted as the prompt asks.
Out: b, c, a
